System: NCI-H522 lung
MEASUREMENT NOTES: NCI-60 one-dose screen, 48 h (100 = growth as untreated, 0 = no growth, -100 = all killed)
ASSAY SETUP: 10 µM unless noted
This is part of a sample that, as a whole, favours compounds with a hit. Of some 83,000 tested, about 20% had one in any assay.
We label by threshold. Values of growth strictly beneath 50% are satisfied. Values of 50% and up are not satisfied.

{"COMPOUND": "CSc1nc(C)c([N+](=O)[O-])c(N)n1", "CAT": "not satisfied"}
{"COMPOUND": "Cc1ccc(S(=O)(=O)Oc2ccc3sc4cccc(NCCN(C)C)c4c(=O)c3c2)cc1", "CAT": "satisfied"}
{"COMPOUND": "Oc1c(CN2CCCC2)cc(CSCc2ccccc2)c2cccnc12", "CAT": "satisfied"}
{"COMPOUND": "CN1CCN(Cc2ccc(NC(=O)c3cncc(C#Cc4cnc5ccc(Cl)nn45)c3)cc2C(F)(F)F)CC1", "CAT": "satisfied"}
{"COMPOUND": "COc1cc(C(=O)n2nc(N3CCOCC3)c3cc(-n4cccc4)ccc32)cc(OC)c1OC", "CAT": "not satisfied"}
{"COMPOUND": "CCOC(=O)C(Cc1ccc(OC)cc1)C(=O)OCC", "CAT": "satisfied"}
{"COMPOUND": "Cc1ccc(S(=O)(=O)OCCCOS(=O)(=O)c2ccc(C)cc2)cc1", "CAT": "not satisfied"}
{"COMPOUND": "CCOC(=O)c1c(C)nc2c(c1N)/C(=C/c1ccc(OC)cc1)C(=O)N2Cc1ccccc1", "CAT": "not satisfied"}
{"COMPOUND": "CCCn1nc(C(=O)N(C)Cc2ccccc2)c2c1CCC(N1CCc3ccccc31)C2 (stereo not given)", "CAT": "not satisfied"}
{"COMPOUND": "COc1cc2nc3sc(C(=O)Nc4ccc(C(=O)OC(C)C)cc4)c(C(=O)Nc4ccc(Cl)cc4C)n3c(=O)c2cc1OC", "CAT": "not satisfied"}
{"COMPOUND": "O=C(CSc1nnc(-c2cc(-c3ccccc3)nc3ccccc23)n1-c1ccccc1)Nc1ccc(C(=O)/C=C/c2ccc(Cl)cc2)cc1", "CAT": "not satisfied"}
{"COMPOUND": "O=C(Oc1ccc(CCl)cc1)c1ccccc1", "CAT": "satisfied"}
{"COMPOUND": "COc1cc(Cl)c(C)cc1NC(=O)c1cc2ccccc2cc1O", "CAT": "satisfied"}
{"COMPOUND": "CCN(CC)c1ccc(CNc2cc(C)nc3ccccc23)cc1", "CAT": "not satisfied"}
{"COMPOUND": "CC1(C)C(N)=Nc2cc(OCCCN3Cc4ccccc4C3)c(OCC3CC3)cc21", "CAT": "not satisfied"}
{"COMPOUND": "CC1=C(CCC(C)NCc2ccc(OCCCN3CCCCC3)cc2)C(C)(C)CCC1 (stereo not given)", "CAT": "satisfied"}
{"COMPOUND": "COC(=O)c1nc(-c2ccccc2)oc1S(=O)(=O)NCC(c1ccc(Cl)cc1)N1CCOCC1 (stereo not given)", "CAT": "satisfied"}
{"COMPOUND": "C=C1C(=O)O[C@H]2[C@H]1CC/C(COC(=O)/C=C/C(=O)OC/C1=C/CC[C@@]3(C)O[C@H]3[C@H]3OC(=O)C(=C)[C@@H]3CC1)=C\\CC[C@@]1(C)O[C@@H]21", "CAT": "satisfied"}
{"COMPOUND": "CNC1=C([N+](=O)[O-])C(c2ccc(OC)cc2)C(C#N)=C(c2cccs2)O1 (stereo not given)", "CAT": "not satisfied"}
{"COMPOUND": "C#CCOc1cccc(-c2ncnc3cc(NC(=O)C=C)ccc23)c1", "CAT": "satisfied"}

###

Test system: A498 renal
MEASUREMENT NOTES: NCI-60 one-dose screen, 48 h (100 = growth as untreated, 0 = no growth, -100 = all killed)
ASSAY SETUP: 10 µM unless noted
About 83,000 compounds went through this panel and 20% of them were active in at least one assay; those are over-represented in the sample as a whole. Calls of active or inactive are those of the source. The calls were made as follows: active = growth percent below 10; inactive = the rest.
Recorded growth, one value per entry.

{"STRUCTURE": "COC(=O)c1ccc(NC(=O)Nc2ccc(C(=O)OC)cc2)cc1", "growth": "81.3% (inactive)"}
{"STRUCTURE": "O=C1/C(=C2\\SC(=S)N(C3CC3)C2=O)SC(=S)N1C1CC1", "growth": "106% (inactive)"}
{"STRUCTURE": "CN1CCN(CCOc2ccc(-c3cnc4c(-c5cccc(F)c5F)cnn4c3)cc2)CC1", "growth": "95.4% (inactive)"}
{"STRUCTURE": "C=C1C(=O)O[C@H]2[C@H]1CC/C(COC(=O)c1ccc(C(=O)O)s1)=C\\CC[C@@]1(C)O[C@@H]21", "growth": "104% (inactive)"}
{"STRUCTURE": "CC1(C)CC(=O)c2c(nn(-c3ccc(Br)cc3)c2-c2cn(-c3ccccc3)nc2-c2cccnc2)C1", "growth": "98.5% (inactive)"}
{"STRUCTURE": "C/C(Cc1ccc(Cl)cc1)=C(\\c1ccc(OCCCN(C)C)cc1)c1ccc(OC(=O)Cc2ccccc2)cc1", "growth": "113% (inactive)"}
{"STRUCTURE": "COc1ccc(-c2nc(/C=C3\\C(=O)N(C)c4ccccc43)c3ccccn23)cc1", "growth": "103% (inactive)"}
{"STRUCTURE": "CCN(CC)Cc1cc(Nc2ccnc3cc(Cl)ccc23)ccc1O", "growth": "95.7% (inactive)"}
{"STRUCTURE": "O=C(CI)NC(=O)NC(=O)NCc1ccccc1", "growth": "91.2% (inactive)"}
{"STRUCTURE": "C=CCn1c(SCC(=O)Nc2ccc(/C(C)=N/O)cc2)nnc1-c1cc(-c2ccc(S(N)(=O)=O)cc2)nc2ccccc12", "growth": "89.2% (inactive)"}

###

System: MDA-MB-435 melanoma
MEASUREMENT NOTES: NCI-60 one-dose screen, 48 h (100 = growth as untreated, 0 = no growth, -100 = all killed)
ASSAY SETUP: 10 µM unless noted
This is part of a sample that, as a whole, favours compounds with a hit. Of some 83,000 tested, about 20% had one in any assay.
One threshold, 50%, splits the recorded growth values: lower ones are condition met, equal or higher ones are condition not met.

{"MOLECULE": "NC(=O)c1cccc([C@@H]2O[C@H](CO)[C@@H](O)[C@H]2O)c1", "CAT": "condition not met"}
{"MOLECULE": "CS(=O)(=O)c1nnc(-c2ccccc2)s1", "CAT": "condition not met"}
{"MOLECULE": "CCN1C(=O)N(CC)C2C1NN=c1s/c(=C3\\C(=O)N(CC(C)C)c4ccccc43)c(=O)n12 (centres undefined)", "CAT": "condition met"}
{"MOLECULE": "CC(C)N1C(=O)/C(=c2\\sc3n(c2=O)C2C(NN=3)N(C)C(=O)N2C)c2ccccc21 (centres undefined)", "CAT": "condition met"}
{"MOLECULE": "N[C@H]1CCC[C@@H]1NCCCCN1C(=O)c2cccc3cc([N+](=O)[O-])cc(c23)C1=O", "CAT": "condition not met"}
{"MOLECULE": "CC[C@]12C=CCN3CC[C@@]4(c5ccc(OC)cc5N(C)[C@H]4[C@@](O)(C(=O)OC)[C@@H]1OC(=O)CCC[P+](c1ccccc1)(c1ccccc1)c1ccccc1)[C@@H]32", "CAT": "condition met"}
{"MOLECULE": "COc1ccc(CNc2c3ccccc3nc3ccccc23)c(OC)c1", "CAT": "condition met"}
{"MOLECULE": "O=C(NC1CC(F)C1)c1cc2cccnc2n1-c1ccc(Cl)c(Cl)c1 (centres undefined)", "CAT": "condition not met"}
